// reported IC50 for each item listed
Biological target: CDK7/Cyclin H/MAT1 complex (Homo sapiens, UniProt P50613)
Sequence (P50613 whole entry, species assumed): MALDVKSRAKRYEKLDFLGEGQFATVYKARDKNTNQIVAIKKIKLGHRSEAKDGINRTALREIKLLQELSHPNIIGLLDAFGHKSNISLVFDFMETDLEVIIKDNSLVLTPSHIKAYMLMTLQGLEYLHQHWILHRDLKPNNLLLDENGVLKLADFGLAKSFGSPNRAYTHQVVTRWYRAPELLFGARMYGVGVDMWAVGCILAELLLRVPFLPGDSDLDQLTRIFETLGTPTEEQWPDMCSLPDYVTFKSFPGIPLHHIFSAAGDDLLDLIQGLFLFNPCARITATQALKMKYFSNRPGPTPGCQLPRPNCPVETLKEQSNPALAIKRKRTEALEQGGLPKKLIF
Sequence (P51946 whole entry partner, species assumed): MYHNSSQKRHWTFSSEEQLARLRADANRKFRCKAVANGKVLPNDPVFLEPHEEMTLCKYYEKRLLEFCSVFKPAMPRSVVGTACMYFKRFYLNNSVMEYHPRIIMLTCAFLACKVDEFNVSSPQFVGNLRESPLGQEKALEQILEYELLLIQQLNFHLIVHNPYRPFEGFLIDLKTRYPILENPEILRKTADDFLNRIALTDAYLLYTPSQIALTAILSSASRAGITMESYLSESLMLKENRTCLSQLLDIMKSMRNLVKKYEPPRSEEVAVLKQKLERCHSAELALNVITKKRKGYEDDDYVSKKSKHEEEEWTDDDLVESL
Sequence (P51948 whole entry partner, species assumed): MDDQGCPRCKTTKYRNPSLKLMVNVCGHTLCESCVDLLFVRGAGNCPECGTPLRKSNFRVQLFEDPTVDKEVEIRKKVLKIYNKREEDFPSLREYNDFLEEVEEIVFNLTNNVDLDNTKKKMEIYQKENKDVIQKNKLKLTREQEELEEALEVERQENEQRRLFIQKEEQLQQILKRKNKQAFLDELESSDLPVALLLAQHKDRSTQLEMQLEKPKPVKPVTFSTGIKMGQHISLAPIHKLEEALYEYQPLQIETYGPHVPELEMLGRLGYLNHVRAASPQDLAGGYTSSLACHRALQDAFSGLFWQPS
Test: CDK7 inhibition assay (Caliper/LabChip EZ Reader kinase assay)
Format: biochemical
Conditions: Table 1; CDK7/Cyclin H/MAT1 6 nM, ATP 2 mM, 35 min at 27° C.

{"molecule": "CC(C)C1CC[C@H](Nc2ncc(C(F)(F)F)c(-c3c[nH]c4ccccc34)n2)CN1 (mixture of isomers)", "IC50": "20 to 200 nM"}
{"molecule": "Cn1cc(-c2nc(NC3CCCNC3)ncc2C(F)(F)F)c2cccc(C#N)c21 (stereo not shown)", "IC50": "20 to 200 nM"}
{"molecule": "O=C(c1ccc2c(-c3nc(N[C@H]4CCCNC4)ncc3C(F)(F)F)c[nH]c2c1)N1C[C@H](O)C(F)(F)C1", "IC50": "< 20 nM"}
{"molecule": "O=C(C1CCC(Nc2ncc(C(F)(F)F)c(-c3c[nH]c4ccccc34)n2)CN1)N1CCC(O)C1 (mixture of isomers) [Compound 244]", "IC50": "20 to 200 nM"}

====

# IC50 values compiled below
Target: CDK9/Cyclin T1 complex (Homo sapiens, UniProt P50750)
Sequence (P50750 whole entry, species assumed): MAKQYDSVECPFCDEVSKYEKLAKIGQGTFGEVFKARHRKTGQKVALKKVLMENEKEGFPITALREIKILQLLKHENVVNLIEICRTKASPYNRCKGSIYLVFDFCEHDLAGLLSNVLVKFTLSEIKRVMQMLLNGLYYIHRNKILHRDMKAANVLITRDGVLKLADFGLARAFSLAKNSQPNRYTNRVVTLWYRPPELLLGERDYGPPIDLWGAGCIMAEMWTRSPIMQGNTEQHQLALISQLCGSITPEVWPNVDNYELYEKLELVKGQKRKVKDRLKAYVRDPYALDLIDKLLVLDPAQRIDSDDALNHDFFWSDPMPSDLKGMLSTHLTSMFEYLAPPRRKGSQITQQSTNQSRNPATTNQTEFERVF
Sequence (O60563 whole entry partner, species assumed): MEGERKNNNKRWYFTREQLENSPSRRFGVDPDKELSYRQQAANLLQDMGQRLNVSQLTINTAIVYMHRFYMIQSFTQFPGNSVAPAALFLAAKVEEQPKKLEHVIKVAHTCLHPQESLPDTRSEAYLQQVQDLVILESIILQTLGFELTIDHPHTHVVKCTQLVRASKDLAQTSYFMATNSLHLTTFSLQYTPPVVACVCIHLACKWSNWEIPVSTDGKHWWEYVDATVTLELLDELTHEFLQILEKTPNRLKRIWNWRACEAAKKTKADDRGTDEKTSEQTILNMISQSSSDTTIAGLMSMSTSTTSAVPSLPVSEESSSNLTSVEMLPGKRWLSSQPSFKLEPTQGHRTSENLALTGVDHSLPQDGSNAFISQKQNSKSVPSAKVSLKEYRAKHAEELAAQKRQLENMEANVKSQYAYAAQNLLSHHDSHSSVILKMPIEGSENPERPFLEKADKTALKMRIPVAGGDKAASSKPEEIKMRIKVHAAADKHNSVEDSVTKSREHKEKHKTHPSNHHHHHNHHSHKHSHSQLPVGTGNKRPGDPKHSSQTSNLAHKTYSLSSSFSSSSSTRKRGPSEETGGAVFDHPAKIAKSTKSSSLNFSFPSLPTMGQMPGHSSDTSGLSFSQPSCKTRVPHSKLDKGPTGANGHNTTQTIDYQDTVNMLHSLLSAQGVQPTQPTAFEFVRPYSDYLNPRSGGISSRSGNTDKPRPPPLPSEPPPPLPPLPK
Test: CDK9 inhibition assay (Caliper/LabChip EZ Reader kinase assay)
Assay type: biochemical
Settings: Table 1; CDK9/Cyclin T1 8 nM, ATP 2 mM, 15 min at 27° C.
property_name: IC50

{"compound": "FC(F)(F)c1cnc(N[C@H]2CCCNC2)nc1-c1c[nH]c2c(-c3ccnnc3)cccc12 [Compound 180]", "experimental_target": "CDK9/Cyclin T1 complex (Homo sapiens, UniProt P50750)", "val": "0.2 to 5 µM"}
{"compound": "O=C(c1ccc2c(-c3nc(N[C@H]4CCCNC4)ncc3C(F)(F)F)c[nH]c2c1)N1CC[C@@](O)(C(F)(F)F)C1 (single isomer, unassigned) [Compound 300]", "experimental_target": "CDK9/Cyclin T1 complex (Homo sapiens, UniProt P50750)", "val": "0.2 to 5 µM"}
{"compound": "O=S1(=O)CCn2cc(-c3nc(N[C@H]4CCCNC4)ncc3C(F)(F)F)c3cccc1c32 [Compound 348]", "experimental_target": "CDK9/Cyclin T1 complex (Homo sapiens, UniProt P50750)", "val": "> 5 µM"}
{"compound": "N#Cc1ccc2c(-c3nc(N[C@@H]4CNC[C@H](O)C4)ncc3C(F)(F)F)c[nH]c2c1 [Compound 370]", "experimental_target": "CDK9/Cyclin T1 complex (Homo sapiens, UniProt P50750)", "val": "> 5 µM"}
{"compound": "CCc1cnc(N[C@H]2CCCNC2)nc1-c1c[nH]c2c(S(=O)(=O)C(C)C)cccc12 [Compound 356]", "experimental_target": "CDK9/Cyclin T1 complex (Homo sapiens, UniProt P50750)", "val": "> 5 µM"}
{"compound": "FC(F)(F)c1cnc(N[C@H]2CCCNC2)nc1-c1c[nH]c2cc(-c3ccc4ncsc4c3)ccc12 [Compound 343]", "experimental_target": "CDK9/Cyclin T1 complex (Homo sapiens, UniProt P50750)", "val": "0.2 to 5 µM"}
{"compound": "CC(C)(O)Cn1cc(-c2ccc3c(-c4nc(N[C@H]5CCCNC5)ncc4C(F)(F)F)c[nH]c3c2)cn1 [Compound 214]", "experimental_target": "CDK9/Cyclin T1 complex (Homo sapiens, UniProt P50750)", "val": "0.2 to 5 µM"}
{"compound": "CNS(=O)(=O)c1ccc2c(-c3nc(N[C@H]4CCCNC4)ncc3C(F)(F)F)c[nH]c2c1 [Compound 200]", "experimental_target": "CDK9/Cyclin T1 complex (Homo sapiens, UniProt P50750)", "val": "0.2 to 5 µM"}
{"compound": "CC1(C)CC[C@H](Nc2ncc(C(F)(F)F)c(-c3c[nH]c4ccccc34)n2)CN1 [Compound 190]", "experimental_target": "CDK9/Cyclin T1 complex (Homo sapiens, UniProt P50750)", "val": "0.2 to 5 µM"}
{"compound": "N#Cc1ccc2c(-c3nc(N[C@H]4CCCNC4)ncc3C(F)(F)F)c[nH]c2c1C#N [Compound 258]", "experimental_target": "CDK9/Cyclin T1 complex (Homo sapiens, UniProt P50750)", "val": "0.2 to 5 µM"}
{"compound": "CCc1cnc(N[C@H]2CCCNC2)nc1-c1c[nH]c2c(S(C)(=O)=O)c(C#N)ccc12 [Compound 263]", "experimental_target": "CDK9/Cyclin T1 complex (Homo sapiens, UniProt P50750)", "val": "> 5 µM"}
{"compound": "CCN1CCC[C@H](Nc2ncc(C(F)(F)F)c(-c3c[nH]c4cc(S(C)(=O)=O)ccc34)n2)C1 [Compound 298]", "experimental_target": "CDK9/Cyclin T1 complex (Homo sapiens, UniProt P50750)", "val": "> 5 µM"}
{"compound": "C[C@H]1CNC[C@@H](Nc2ncc(Cl)c(-c3c[nH]c4ccccc34)n2)C1 [Compound 201]", "experimental_target": "CDK9/Cyclin T1 complex (Homo sapiens, UniProt P50750)", "val": "0.2 to 5 µM"}
{"compound": "CCc1cnc(N[C@H]2CCCNC2)nc1-c1c[nH]c2ncc(F)cc12 [Compound 270]", "experimental_target": "CDK9/Cyclin T1 complex (Homo sapiens, UniProt P50750)", "val": "0.2 to 5 µM"}
{"compound": "CN1CCC[C@H](Nc2ncc(Cl)c(-c3c[nH]c4ccccc34)n2)C1 [Compound 136]", "experimental_target": "CDK9/Cyclin T1 complex (Homo sapiens, UniProt P50750)", "val": "0.2 to 5 µM"}
{"compound": "Cn1cc(-c2nc(NC3CCCNC3)ncc2C(F)(F)F)c2ccc(C#N)nc21 (stereo not drawn) [Compound 273]", "experimental_target": "CDK9/Cyclin T1 complex (Homo sapiens, UniProt P50750)", "val": "> 5 µM"}
{"compound": "N#Cc1ccc2c(-c3nc(N[C@@H]4CNC[C@@H](F)C4)ncc3C(F)(F)F)c[nH]c2c1 [Compound 368]", "experimental_target": "CDK9/Cyclin T1 complex (Homo sapiens, UniProt P50750)", "val": "> 5 µM"}
{"compound": "CC(C)CN1CCC[C@H](Nc2ncc(Cl)c(-c3c[nH]c4ccccc34)n2)C1 [Compound 145]", "experimental_target": "CDK9/Cyclin T1 complex (Homo sapiens, UniProt P50750)", "val": "> 5 µM"}
